Subject of test: cation-dependent mannose 6-phosphate receptor (sCD-MPR) (Bos taurus, UniProt P11456, N59Q/N85Q/N96Q/N115Q)
Sequence (P11456 29-182 N59Q/N85Q/N96Q/N115Q): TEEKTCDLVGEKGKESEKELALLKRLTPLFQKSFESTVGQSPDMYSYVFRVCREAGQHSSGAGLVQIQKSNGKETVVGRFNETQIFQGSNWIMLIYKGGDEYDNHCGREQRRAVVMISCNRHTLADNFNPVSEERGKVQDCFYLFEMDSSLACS
Procedure details: […]-1H HSQC NMR titration
Measured parameter: Kd

>>> print(df.to_string())
                                   compound  experimental_result
0  O=P(O)(O)OC[C@H]1OC(O)[C@@H](O)[C@@H](O)[C@@H]1O (stereo partly shown) [mannose 6-phosphate]             ~1000 µM
